- Species on record: Homo sapiens
- measurement-protocol: Prothrombin time activity, concentration required to double the time of clot formation in the prothrombin time assay
- Assay type: functional
attribute-measured: PT (µM)

# molecular-string, attribute-measured, unit-abbrev, test-result
data = [
    ("COc1ccc(C(=O)Nc2ccccc2NC(=O)NCC2CCN(c3ccncc3)CC2)cc1", "PT", "µM", 0.96),
    ("O=C(NCC1CCN(c2ccncc2)CC1)Nc1ccccc1NC(=O)c1ccccc1", "PT", "µM", 6.2),
    ("CCOc1ccc(C(=O)Nc2ccccc2NC(=O)NCC2CCN(c3ccncc3)CC2)cc1", "PT", "µM", 2.6),
    ("COc1ccc(C(=O)Nc2ccccc2NC(=O)NC2CCN(c3ccncc3)CC2)cc1", "PT", "µM", 2.4),
    ("CC(C)(C)c1ccc(C(=O)Nc2cc(C(=O)O)ccc2NC(=O)c2cccc(C(=N)N)c2)cc1", "PT", "µM", 0.83),
]
